// provenance: paper PMC9838217

In this section we review reported binding signal values for a set of sequences.
Molecular target: SALL4 ZFC4 WT (HT-SELEX) (Mus musculus, UniProt Q8BX22 870-940)
Sequence: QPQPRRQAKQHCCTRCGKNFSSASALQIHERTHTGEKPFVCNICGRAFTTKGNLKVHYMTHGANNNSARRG
Experiment: HT-SELEX; high values mean tight binding
Conditions: protein: recombinant; vector His6-GST; dsDNA, one strand shown
Only the number, expressed in fold-change vs cycle 0, is required.

The following sequences have reported results that may help.
{"CONSTRUCT SEQUENCE": "GAAACA", "binding signal / fold-change vs cycle 0": 1.23}
{"CONSTRUCT SEQUENCE": "AGCTGA", "binding signal / fold-change vs cycle 0": 0.687}
{"CONSTRUCT SEQUENCE": "CATTGA", "binding signal / fold-change vs cycle 0": 1.25}
{"CONSTRUCT SEQUENCE": "GCATAC", "binding signal / fold-change vs cycle 0": 0.665}
{"CONSTRUCT SEQUENCE": "CAGGGA", "binding signal / fold-change vs cycle 0": 0.492}

Need binding signal, item `GGGTGA`
0.483

Param item: `GGTCAA`
0.661

Another sequence to check: `TCGTCA`
0.675

Param item: `ACGATA`
1.28

Can you check `ATTCAG` next?
1.31

###

Biological target: SALL4 ZFC4 R900W (HT-SELEX) (Mus musculus, UniProt Q8BX22 870-940, R900W)
Sequence: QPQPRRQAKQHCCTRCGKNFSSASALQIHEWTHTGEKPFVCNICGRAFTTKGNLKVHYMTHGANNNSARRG
Assay: HT-SELEX; high values mean tight binding
Details: protein: recombinant; vector His6-GST; dsDNA, one strand shown
Recorded binding signal determines the group label, using label 0 (below 0.2 fold-change vs cycle 0), label 1 (0.2 fold-change vs cycle 0 to below 1 fold-change vs cycle 0), label 2 (1 fold-change vs cycle 0 or more)

Illustrative cases are given below, each with its answer.
{"CONSTRUCT SEQUENCE": "GAAAGC", "ASSIGNED LABEL": "label 1"}
{"CONSTRUCT SEQUENCE": "GGCGCC", "ASSIGNED LABEL": "label 0"}
{"CONSTRUCT SEQUENCE": "CGCGTA", "ASSIGNED LABEL": "label 1"}
{"CONSTRUCT SEQUENCE": "CACGCG", "ASSIGNED LABEL": "label 0"}
{"CONSTRUCT SEQUENCE": "AAAATA", "ASSIGNED LABEL": "label 2"}
{"CONSTRUCT SEQUENCE": "AATGTC", "ASSIGNED LABEL": "label 2"}
{"CONSTRUCT SEQUENCE": "CCTTTC", "ASSIGNED LABEL": "label 1"}
{"CONSTRUCT SEQUENCE": "CGAACA", "ASSIGNED LABEL": "label 1"}

Assign a category based on measured binding signal for `CACCGC` and give only the class name.
label 0

Same again, this time with `ATCACA`
label 2

Similarly, `TCAAAA` ?
label 2

What do you get for `TATCCA` ?
label 2

###

Target: SALL4 ZFC4 R900W (HT-SELEX) (Mus musculus, UniProt Q8BX22 870-940, R900W)
Sequence: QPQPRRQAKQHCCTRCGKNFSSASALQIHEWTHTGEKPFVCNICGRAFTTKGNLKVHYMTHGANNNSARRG
Assay: HT-SELEX; high values mean tight binding
Details: protein: recombinant; vector His6-GST; dsDNA, one strand shown
binding signal values, listed per item
All answers are understood in fold-change vs cycle 0, so give the number only.

Here's what some known entries look like.
{"CONSTRUCT SEQUENCE": "CAAGTG", "REPORTED RESULT": 0.902}
{"CONSTRUCT SEQUENCE": "CATCTA", "REPORTED RESULT": 1.41}
{"CONSTRUCT SEQUENCE": "CCTGCC", "REPORTED RESULT": 0.172}
{"CONSTRUCT SEQUENCE": "CGTGGA", "REPORTED RESULT": 0.435}
{"CONSTRUCT SEQUENCE": "CTACAC", "REPORTED RESULT": 0.845}
{"CONSTRUCT SEQUENCE": "ACCAGT", "REPORTED RESULT": 0.969}
{"CONSTRUCT SEQUENCE": "AGCAGA", "REPORTED RESULT": 0.815}
{"CONSTRUCT SEQUENCE": "CGGCTC", "REPORTED RESULT": 0.124}

Which binding signal value belongs to `ACTATC` ?
1.45

Again, but for `CAGACG`
0.442

###

Target: SALL4 ZFC4 WT (HT-SELEX) (Mus musculus, UniProt Q8BX22 870-940)
Sequence: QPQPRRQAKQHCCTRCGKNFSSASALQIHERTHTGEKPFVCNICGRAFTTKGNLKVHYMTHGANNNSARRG
Assay: HT-SELEX; high values mean tight binding
Settings: protein: recombinant; vector His6-GST; dsDNA, one strand shown
Label Condition met when binding signal is strictly below 0.9 fold-change vs cycle 0; at or above that, label Condition not met.

Known results for sequences:
{"CONSTRUCT SEQUENCE": "CGTACA", "ASSIGNED LABEL": "Condition met"}
{"CONSTRUCT SEQUENCE": "AAGGAG", "ASSIGNED LABEL": "Condition not met"}
{"CONSTRUCT SEQUENCE": "TGCTAA", "ASSIGNED LABEL": "Condition not met"}

binding signal under 0.9 fold-change vs cycle 0? Item: `AATGGC`
Condition met

Ok, now `CGAGGA`
Condition met

Moving on to `CACAAA`
Condition not met

What do we get for `GATAAA` ?
Condition not met

Lookup `AGGAGA`
Condition not met

Another sequence to look at: `CAGGTA`
Condition met

Now consider `AAACGC` and answer again.
Condition met

Note, next up: `ACTTTG`
Condition not met

Record: `AAACCT`
Condition not met

`ATTGCC` , same question.
Condition met

What would you report for `CATGGG` ?
Condition met

For `GTAAGA` then?
Condition not met

Queued: `AAGGAA`
Condition not met

Query `TGGAAA` next
Condition not met

Can you check `ATCACG` next?
Condition met

Record: `CTGTGA`
Condition met

###

Molecular target: SALL4 ZFC4 G921D (HT-SELEX) (Mus musculus, UniProt Q8BX22 870-940, G921D)
Sequence: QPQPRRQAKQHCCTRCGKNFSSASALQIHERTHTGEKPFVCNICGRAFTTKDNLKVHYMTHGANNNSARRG
Test: HT-SELEX; high values mean tight binding
Settings: protein: recombinant; vector His6-GST; dsDNA, one strand shown
Labelling: binding signal reported below 0.9 fold-change vs cycle 0 becomes true (1); at or above becomes false (0).

Illustrative cases are given below, each with its answer.
{"CONSTRUCT SEQUENCE": "CACGCC", "ASSIGNED LABEL": "true (1)"}
{"CONSTRUCT SEQUENCE": "GAGTCA", "ASSIGNED LABEL": "false (0)"}

In plain terms, does `TCATCA` come in under 0.9 fold-change vs cycle 0 for binding signal?
false (0)

Entry `ACTGGC` please
true (1)

Entry to check: `AACAGA`
false (0)

Could you do the same for `ATCCAA` , please?
false (0)

###

Target: SALL4 ZFC4 G921D (HT-SELEX) (Mus musculus, UniProt Q8BX22 870-940, G921D)
Sequence: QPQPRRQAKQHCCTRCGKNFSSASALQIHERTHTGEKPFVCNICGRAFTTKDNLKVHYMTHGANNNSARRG
Test: HT-SELEX; high values mean tight binding
Details: protein: recombinant; vector His6-GST; dsDNA, one strand shown
Entries and their log10(binding signal)
Form field - Quantity: binding signal; Unit: fold-change vs cycle 0; Scale: log10

Reference set (6 entries):
{"CONSTRUCT SEQUENCE": "TCTAAA", "log10(binding signal)": 0.22}
{"CONSTRUCT SEQUENCE": "GTTATA", "log10(binding signal)": 0.25}
{"CONSTRUCT SEQUENCE": "CTGCAC", "log10(binding signal)": -0.33}
{"CONSTRUCT SEQUENCE": "ATATTC", "log10(binding signal)": 0.25}
{"CONSTRUCT SEQUENCE": "GCCGCC", "log10(binding signal)": -0.97}
{"CONSTRUCT SEQUENCE": "CCCTCC", "log10(binding signal)": -0.34}

Please state recorded log10(binding signal) (tested on SALL4 ZFC4 G921D (HT-SELEX) (Mus musculus, UniProt Q8BX22 870-940, G921D)) of `CGTGAC`
-0.25

Now try `AGCAGG` .
-0.25

Next sequence up: `CCTACG`
-0.28

Next entry: `CAAGCC`
-0.31

Same read-out for `ATTGAG` ?
0.13

Now give it for `TTGAAA` too.
0.23
